tested on: SK-OV-3 ovarian; test: NCI tumour cell line growth inhibition, 48 h
Each entry below carries its recorded TGI.

Use the examples below as a reference point.
>  <compound>
COc1ccc(NC(=O)C(=O)/C=C(\O)c2ccccc2)cc1

>  <TGI>
> 10 µM

$$$$
>  <compound>
CCCCNc1nc(NC2OCC(OC(C)=O)C(OC(C)=O)C2OC(C)=O)c(N=O)c(=O)n1C (configuration not stated)

>  <TGI>
> 10 µM

$$$$
>  <compound>
O=C(Nc1ccccc1OC(=O)c1ccccc1)c1ccccc1

>  <TGI>
> 100 µM

$$$$
>  <compound>
COC(=O)C(C(=O)C(=O)Nc1ccc([N+](=O)[O-])cc1)c1nc2ccc([N+](=O)[O-])cc2[nH]c1=O (configuration not stated)

>  <TGI>
> 100 µM

$$$$
>  <compound>
N#Cc1nc(C#N)n(S(=O)(=O)c2ccccc2)c1NS(=O)(=O)c1ccccc1

>  <TGI>
> 100 µM

$$$$

Exercise: Fill in the blank: the reported TGI of CCOC(=O)C1Nc2ccccc2[C@H]2OCC[C@@H]12 (some centres not stated) is ____.
Solution: > 100 µM

Exercise: Fill in the blank: the reported TGI of COc1cc(CNc2nc3ccccc3nc2C(=O)O)cc(OC)c1OC is ____.
Solution: > 100 µM

Exercise: Fill in the blank: the reported TGI of CN1CCN(c2ccc3c(c2)NCC(=O)N3)CC1 is ____.
Solution: > 100 µM

Exercise: Fill in the blank: the reported TGI of COc1ccc(-c2cc(=O)c3c(O)cccc3o2)c(OC)c1OC is ____.
Solution: > 100 µM

Exercise: Fill in the blank: the reported TGI of O=C1OC(=O)c2c1c(-c1ccccc1)nc1ccccc21 is ____.
Solution: > 100 µM

Exercise: Fill in the blank: the reported TGI of C1CSCCSCCCSCCSCCCSCCSCCCSCCSC1 is ____.
Solution: > 100 µM

Exercise: Fill in the blank: the reported TGI of CCCn1c(=O)c(N2CCN(c3ccccc3)CC2)nc2sc3ccccc3c21 is ____.
Solution: > 100 µM

---

system: TK-10 renal; assay: NCI tumour cell line growth inhibition, 48 h
Returns label 1 if the recorded TGI is greater than or equal to 40 µM, and label 0 otherwise.

Consider the following illustrative entries.
>  <compound>
CC1=C(C(=O)Nc2ccc(Cl)c(Cl)c2)C(c2ccc([N+](=O)[O-])cc2)C(C(=O)Nc2ccc(Cl)c(Cl)c2)=C(C)N1

>  <group label>
label 1

$$$$
>  <compound>
CN=C1OC2(c3ccccc3)C3=C(OC(=NC)N2C)C(=O)OC3(c2ccccc2)N1C (configuration not stated)

>  <group label>
label 1

$$$$
>  <compound>
Cc1cccc(NC(=O)/C(=N\N)C(c2cnc3ccc([N+](=O)[O-])cc3n2)[N+](=O)[O-])c1C (configuration not stated)

>  <group label>
label 1

$$$$
>  <compound>
c1cc(-c2cn3c(n2)SCC3)ccn1

>  <group label>
label 1

$$$$
>  <compound>
OC(c1cccnc1Cl)c1nc2ccccc2c2ccnc(Cl)c12 (configuration not stated)

>  <group label>
label 1

$$$$

Exercise: Does Oc1cccc2c1NCCC2 have a reported TGI of at least 40 µM?
Solution: label 1

Exercise: Does O=c1[nH]c2nc3ccccc3c(=O)n2/c1=C/c1ccco1 have a reported TGI of at least 40 µM?
Solution: label 1

Exercise: Does CN1CCc2nc3sc(C(N)=O)c(N)c3c(-c3cccs3)c2C1 have a reported TGI of at least 40 µM?
Solution: label 0

Exercise: Does COc1cc(Oc2nc3ccc(C(F)(F)F)cc3nc2-c2ccccc2)cc(OC)c1OC have a reported TGI of at least 40 µM?
Solution: label 1

Exercise: Does COc1cc(C(=O)Nc2cc(O)c(CC=C(C)C)c(O)c2)cc2c1O[C@]1(C)CC[C@@H](O)C(C)(C)[C@H]1C2 have a reported TGI of at least 40 µM?
Solution: label 1

Exercise: Does O=C1OC(=O)c2c1c(-c1ccccc1)nc1ccccc21 have a reported TGI of at least 40 µM?
Solution: label 1

Exercise: Does Nc1ncnc2c1ncn2[C@@H]1O[C@H](COC(c2ccccc2)(c2ccccc2)c2ccccc2)[C@@H](OC(=S)Oc2ccccc2)[C@@H]1F have a reported TGI of at least 40 µM?
Solution: label 0

Exercise: Does NC(Cc1ccc(S(=O)(=O)O)cc1)C(=O)NC(Cc1ccc(S(=O)(=O)O)cc1)C(=O)NC(Cc1ccc(S(=O)(=O)O)cc1)C(=O)NC(Cc1ccc(S(=O)(=O)O)cc1)C(=O)O (configuration not stated) have a reported TGI of at least 40 µM?
Solution: label 1

Exercise: Does Fc1ccc(/C=N/n2c(-c3ccc(F)c(Cl)c3)n[nH]c2=S)cc1 have a reported TGI of at least 40 µM?
Solution: label 1

Exercise: Does CN=C(Nc1cccc(C(F)(F)F)c1)SCc1ccc(N=C=S)cc1 have a reported TGI of at least 40 µM?
Solution: label 0

Exercise: Does Cc1cc(=O)c2c(O)cc3c(c2o1)CC=C(COC1OC(COC2OC(CO)C(O)C(O)C2O)C(O)C(O)C1O)CO3 (configuration not stated) have a reported TGI of at least 40 µM?
Solution: label 1

Exercise: Does COC(=O)C(=O)Cc1nc2ccccc2o1 have a reported TGI of at least 40 µM?
Solution: label 1

---

Each entry below carries its recorded TGI.
test system: 786-0 renal; assay: NCI tumour cell line growth inhibition, 48 h

Use the examples below as a reference point.
>  <molecule>
N#CCCC1(CCC#N)CCCCCCCCC(CCC#N)(CCC#N)C(O)C1O (stereo unspecified)

>  <TGI>
> 100 µM

$$$$
>  <molecule>
CNNC(=NS(=O)(=O)c1cc(C#N)c(NNC)cc1S)NNC

>  <TGI>
> 10 µM

$$$$
>  <molecule>
Fc1cccc(F)c1C(Nc1nncs1)Nc1nncs1

>  <TGI>
> 100 µM

$$$$
>  <molecule>
N#CNc1nc(N)c(-c2ccc(Cl)cc2)c(C(=O)Nc2nccs2)n1

>  <TGI>
> 100 µM

$$$$
>  <molecule>
C[n+]1c2ccccc2nc2c(N)cc(N)cc21

>  <TGI>
> 100 µM

$$$$

Then this molecule:
Exercise: Fill in the blank: the reported TGI of Clc1ccc2oc(CCc3ccccc3)nc2c1 is ____.
Solution: > 100 µM

---

tested on: MCF7 breast; experiment: NCI tumour cell line growth inhibition, 48 h; in the data active = GI50 below about 0.43 µM; inactive = the rest
Write down the outcome that applies. Available outcomes: t (active), f (inactive)

>  <molecule>
COc1ccc(/C=C(\C)[N+](=O)[O-])cc1OC

>  <group label>
f

$$$$
>  <molecule>
Fc1ccc(/C=N/n2c(-c3ccc(F)c(Cl)c3)n[nH]c2=S)cc1

>  <group label>
f

$$$$
>  <molecule>
Cc1[nH]c(-c2cc(N)ccc2Cl)c2c1C(=O)CCCC2

>  <group label>
f

$$$$

Exercise: How did this test come out for CCOC(=O)c1cc2c(cc1Cl)SC(=Nc1ccccc1)N(S(=O)(=O)c1ccc(Br)s1)S2(=O)=O ?
Solution: f

Exercise: How did this test come out for FC(F)(F)c1cccc(-c2nn3ncccc3c2-c2ccnc(Nc3ccc4c(c3)OCCO4)n2)c1 ?
Solution: f

Exercise: How did this test come out for CCN1C(=O)N(CC)C2C1NN=c1s/c(=C\c3ccc(F)cc3)c(=O)n12 (configuration not stated) ?
Solution: t

Exercise: How did this test come out for Cc1ccc(C2C3Cc4ccccc4C3=NN2c2ccc(S(=O)(=O)/N=c3\scc(-c4ccccc4)n3-c3ccccc3)cc2)cc1 (configuration not stated) ?
Solution: f

Exercise: How did this test come out for COc1ccc2c(c1)C(=O)c1c-2c(OCCN(C)C)nc2ccccc12 ?
Solution: f

Exercise: How did this test come out for c1cc(N2CCN(c3ccc(C4=NCCCN4)cc3)CC2)ccc1C1=NCCCN1 ?
Solution: f

Exercise: How did this test come out for C[CH2][Hg][S]c1ccccc1C(=O)O ?
Solution: f

Exercise: How did this test come out for Oc1c(-c2cc(C(F)(F)F)[nH]n2)cc(Cl)c(OCc2ccc(Cl)cc2)c1-c1ccc(Cl)c(C(F)(F)F)c1 ?
Solution: t

Exercise: How did this test come out for COc1ccc2c(-c3ccnc(Nc4cccc(OC(F)(F)F)c4)n3)cnn2n1 ?
Solution: f

---

system: MALME-3M melanoma; assay: NCI tumour cell line growth inhibition, 48 h
property name: TGI

Use the examples below as a reference point.
>  <compound>
CCN1C(=O)N(CC)C2C1NN=c1s/c(=C\c3ccc(F)cc3)c(=O)n12 (stereo unspecified)

>  <result>
> 100 µM

$$$$
>  <compound>
O=C1Cc2c([nH]c3ccc(C(=O)O)cc23)-c2ccccc2N1

>  <result>
> 100 µM

$$$$
>  <compound>
O=C1C(OCCOc2ccccc2)=C(OCCOc2ccccc2)C(=O)c2ccccc21

>  <result>
> 100 µM

$$$$
>  <compound>
N#CCCC1(CCC#N)CCCCCCCCC(CCC#N)(CCC#N)C(O)C1O (stereo unspecified)

>  <result>
> 100 µM

$$$$
>  <compound>
O=C(Nc1ccccc1OC(=O)c1ccccc1)c1ccccc1

>  <result>
> 100 µM

$$$$

Then this compound:
Exercise: Fill in the blank: the reported TGI of Oc1cc(-n2cccn2)c(O)cc1-n1cccn1 is ____.
Solution: > 78.1 µM
